Entry source: PubChem BioAssay (NCI)

System: KM12 colon
experimentalDetails: NCI-60 one-dose screen, 48 h (100 = growth as untreated, 0 = no growth, -100 = all killed)
measurementSetup: 10 µM unless noted
The panel holds about 83,000 compounds, 20% with a hit somewhere; the sample as a whole holds those more often. Active and inactive are the calls of the source. Rule for the calls: active = growth percent below 10; inactive = the rest.
experimentalReadout: growth

// solved cases for growth follow
// sample CC1CN=C(c2cccc(-c3ccc(-c4ccccc4)o3)c2)N1 (stereo unspecified) , its growth was -8.35% (active)

// sample CC(C)(C)C(=O)/C=C/c1ccc([N+](=O)[O-])cc1 , its growth was 31.9% (inactive)

// sample COc1ccc(Cc2cnc(NC(=O)c3sc4ccccc4c3Cl)s2)cc1 , its growth was 16.7% (inactive)

// sample Cn1c(/C=C/[N+](=O)[O-])cc2ccccc21 , its growth was -63.8% (active)

// sample Cc1cc2nc(-c3c(-c4ccc(F)cc4)nc4sccn34)[nH]c2cc1C , its growth was 96.7% (inactive)

// sample Nc1ccc([N+](=O)[O-])cc1N=C/C=C/c1ccccc1 , its growth was 40.3% (inactive)

// sample COc1cc(C2Cc3ncccc3-c3[nH]c(=O)c4cccnc4c32)cc(OC)c1OC (stereo unspecified) , its growth was 23% (inactive)

// sample C#CCn1cnc2c(Nc3cccc(NC(=O)CCl)c3)ncnc21 , its growth was 37.7% (inactive)

Below is a list of compounds. For each, state its recorded growth.
1. Oc1c(CN2CCCC2)cc(COCc2ccccc2)c2cccnc12
2. CC1(C)C2CC=C(/C=N/NC(=O)C3CCC(=O)N3)C1C2 (stereo unspecified)
3. O=C(CCCCCCN1CC(=O)N2[C@@H](C3CCCCC3)c3[nH]c4ccccc4c3C[C@H]2C1=O)NO

1. 28.7% (inactive)
2. 106% (inactive)
3. 81.3% (inactive)

* * *

Test system: EKVX NSCLC
experimentalDetails: NCI-60 one-dose screen, 48 h
measurementSetup: 10 µM unless noted
The panel holds about 83,000 compounds, 20% with a hit somewhere; the sample as a whole holds those more often. Calls of active or inactive are those of the source. The calls were made as follows: active = growth percent below 10; inactive = the rest.
Field 'call' accepts yes (1) = active, no (0) = inactive

Given CS(=O)(=O)Nc1cncc(-c2ccc3ncnc(Nc4ccc(F)c(Cl)c4)c3c2)c1 , state the outcome it received in this test.
yes (1)

Given O=C1/C(=C/c2ccc(Br)cc2)COc2ccc(O)c(O)c21 , state the outcome it received in this test.
no (0)

Given CCN(C(=O)N1CCN(c2cc3c(cc2F)c(=O)c(C(=O)O)cn3C2CC2)CC1)c1nc(-c2ccc(C)cc2)cs1 , state the outcome it received in this test.
no (0)

Given O=C1NC(=C(Cl)Cl)/C(=N/S(=O)(=O)N2CCCCC2)N1 , state the outcome it received in this test.
yes (1)

Given C=C1C(=O)O[C@H]2[C@H]1CC/C(COC(=O)NCCCCCCCCNC(=O)OC/C1=C/CC[C@@]3(C)O[C@H]3[C@H]3OC(=O)C(=C)[C@@H]3CC1)=C\CC[C@@]1(C)O[C@@H]21 , state the outcome it received in this test.
yes (1)

Given COc1ccc(C2=NN(C(C)=O)C(c3ccc(Oc4ccnc5cc(Cl)ccc45)c(OC)c3)C2)cc1 (stereo not drawn) , state the outcome it received in this test.
no (0)

Given CCN(CC)CCCNCc1cc(-c2ccccc2)nc2cc(Cl)ccc12 , state the outcome it received in this test.
no (0)

Given CCOC(=O)C1=C(c2ccccc2)N=c2s/c(=C/c3ccc(Br)cc3)c(=O)n2C1c1ccc(O)cc1 (stereo not drawn) , state the outcome it received in this test.
no (0)
